- Target or test system: KRAS (G12D)-HiBit in AsPc-1-KRAS (G12D)-HiBit-KI cell (Homo sapiens, UniProt P01116, G12D)
- Construct: host or cells: AsPc-1-KRAS (G12D)-HiBit-KI cells (knock-in line)
- Sequence (P01116 1-188 isoform P01116-2 G12D): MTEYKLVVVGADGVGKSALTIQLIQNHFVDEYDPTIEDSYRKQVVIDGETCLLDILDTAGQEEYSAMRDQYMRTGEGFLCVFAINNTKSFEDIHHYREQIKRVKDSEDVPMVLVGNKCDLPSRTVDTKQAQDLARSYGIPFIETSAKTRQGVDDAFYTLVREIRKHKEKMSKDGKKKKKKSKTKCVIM
- Method: G12D HiBit assay
- Format: cell-based
- Setup conditions: 24 hours compound treatment, absolute DC50, read-out: Average PHA DC50
Readout kind: DC50

Known DC50 results, listed for orientation:
Problem: Provide measured DC50 value, entry: C#Cc1c(F)ccc2cccc(-c3ncc4c(N5CC6CCC(C5)N6)nc(OC[C@@]56CCCN5[C@H](COC(=O)N5CCC(CN7CCC(c8cccc9c8n(C)c(=O)n9C8CCC(=O)N(C)C8=O)CC7)CC5)CC6)nc4c3F)c12 (stereo partly drawn) [Compound 79]
Result: ≥ 0.3 µM

Problem: Provide measured DC50 value, entry: C#Cc1c(F)ccc2cccc(-c3ncc4c(N5CC6CCC(C5)N6)nc(OC[C@@]56CCCN5[C@H](COC(=O)N5CCC(CN7CCC(c8ccc9c(c8)n(C)c(=O)n9C8CCC(=O)NC8=O)CC7)CC5)CC6)nc4c3F)c12 (stereo partly drawn) [Compound 44]
Result: < 0.1 µM

Problem: Provide measured DC50 value, entry: C#Cc1c(F)ccc2cccc(-c3ncc4c(N5CC6CCC(C5)N6)nc(OC[C@@]56CCCN5[C@H](COC(=O)NCCCN(C)C5CCN(c7cccc8c7n(C)c(=O)n8C7CCC(=O)NC7=O)CC5)CC6)nc4c3F)c12 (stereo partly drawn) [Compound 109]
Result: ≥ 0.3 µM

Problem: Provide measured DC50 value, entry: C#Cc1c(F)ccc2cccc(-c3ncc4c(N5CC6CCC(C5)N6)nc(OC[C@@]56CCCN5[C@H](COC(=O)N5CCC(OCC#CC#Cc7cccc8c7n(C)c(=O)n8C7CCC(=O)NC7=O)CC5)CC6)nc4c3F)c12 (stereo partly drawn) [Compound 93]
Result: < 0.1 µM

Problem: Provide measured DC50 value, entry: C#Cc1c(F)ccc2cccc(-c3ncc4c(N5CC6CCC(C5)N6)nc(OC[C@@]56CCCN5[C@H](COC(=O)N5CCC(N7CCC(Cc8ccc9c(c8)n(C)c(=O)n9C8CCC(=O)NC8=O)CC7)CC5)CC6)nc4c3F)c12 (stereo partly drawn) [Compound 75]
Result: 0.1 to 0.3 µM

Okay, next one:
Problem: Provide measured DC50 value, entry: C#Cc1c(F)ccc2cccc(-c3ncc4c(N5CC6CCC(C5)N6)nc(OC[C@@]56CCCN5[C@H](COC(=O)N5CCC7(CCC(CCc8cccc9c8n(C)c(=O)n9C8CCC(=O)NC8=O)CC7)CC5)CC6)nc4c3F)c12 (stereo partly drawn) [Compound 60]
Result: 0.1 to 0.3 µM

Attribution: patent US12404285B2
